The reported measurements were obtained from PubChem BioAssay (NCATS).

- experimentalTarget: Glucocorticoid receptor (Homo sapiens)
- experimentSummary: GR-EFC Redistribution (AID 451); further: potency means the concentration at half of the fitted maximal effect
- setupConditions: CHO-K1 GR-EFC translocation, beta-gal luminescence, 2 h
Active and inactive are the calls of the source. The call rests on the fitted dose curve.
valueKind: Potency

structureSmilesString | valueKind | dataValue
O=C(Oc1ccccc1)N1CCC2(CCN(Cc3nccs3)CC2)CC1 | Potency | > 46 µM (inactive)
C#C[C@@]1(O)CC[C@@H]2[C@@H]3CCC4=CC(=O)CC[C@@]4(C)[C@H]3CC[C@]21C | Potency | > 20.6 µM (inactive)
CC(C)CN1CCCC2(CCN(C(=O)c3ccncc3)CC2)C1 | Potency | > 46 µM (inactive)
CN1CCC2=C[C@H](O)[C@@H]3OC(=O)c4cc5c(cc4[C@H]3[C@H]21)OCO5 | Potency | > 20.6 µM (inactive)
COC(=O)N1CCC2(CCCN(C)C2)CC1 | Potency | > 46 µM (inactive)
CCCCC/C=C\C/C=C\C/C=C\C/C=C\CCCC(=O)Nc1ccc(O)cc1 | Potency | > 46 µM (inactive)
O=C(Nc1ccccc1)N1CCCC2(CCN(C(=O)Oc3ccccc3)CC2)C1 | Potency | > 46 µM (inactive)
C[C@@H]1O[C@H](O[C@@H]2CC[C@@]3(C=O)[C@H]4CC[C@@]5(C)[C@@H](C6=CC(=O)OC6)CC[C@@]5(O)[C@@H]4CC[C@]3(O)C2)C[C@H](O)[C@@H]1O | Potency | > 20.6 µM (inactive)
O=C(c1csnn1)N1CCC2(CC1)CN(Cc1ccncc1)C2 | Potency | > 46 µM (inactive)
CC(C)CN1CC2(CCN(C(=O)Oc3ccccc3)CC2)C1 | Potency | > 46 µM (inactive)
CN1[C@@H](C[C@@H](O)c2ccccc2)CCC[C@@H]1C[C@H](O)c1ccccc1 | Potency | > 20.6 µM (inactive)
CCN1C[C@]2(COC)CC[C@H](O)[C@@]34[C@@H]5C[C@H]6[C@@H](OC)[C@H]5[C@](O)(C[C@@H]6OC)[C@@](O)([C@@H](OC)[C@H]23)[C@@H]14 | Potency | > 20.6 µM (inactive)
COc1ccc(NC(=O)N2CC[C@@]3(CCCN(C(=O)Oc4ccccc4)C3)C2)cc1 | Potency | > 46 µM (inactive)
CC(C)c1c(CN(C)[C@@H](C)Cc2ccccc2)n(C)n(-c2ccccc2)c1=O | Potency | > 20.6 µM (inactive)
C[C@@H]1O[C@H](O[C@@H]2C=C3CC[C@H]4[C@@H](CC[C@]5(C)[C@@H](c6ccc(=O)oc6)CC[C@]45O)[C@@]3(C)CC2)[C@@H](O)[C@H](O)[C@@H]1O | Potency | > 20.6 µM (inactive)
c1csc(CN2CC3(CCNCC3)C2)n1 | Potency | > 46 µM (inactive)
CCN(CC)C(=O)N[C@H]1C=C2c3cccc4[nH]cc(c34)C[C@@H]2N(C)C1 | Potency | > 20.6 µM (inactive)
O=[N+]([O-])O[C@H]1CO[C@H]2[C@H]1OC[C@@H]2O[N+](=O)[O-] | Potency | > 20.6 µM (inactive)
